System: mushroom tyrosinase
Test: Kinetic studies of tyrosinase inhibition (Lineweaver-Burk and secondary plots)
Type: biochemical, Agaricus bisporus
Conditions: diphenolase activity of mushroom tyrosinase, L-DOPA; Lineweaver-Burk plot
propertyName: Inhibition Type

molecule="C/C(=N\\NC(N)=S)c1ccc(O)cc1 [TSC 9]" readoutvalue=competitive
molecule="C/C(=N\\NC(N)=S)c1ccccc1[N+](=O)[O-] [TSC 10]" readoutvalue=mixed-type
molecule="COc1ccccc1C(C)=NNC(N)=S [TSC 1, 2’-methoxyacetophenone thiosemicarbazone]" readoutvalue=mixed-type
molecule="COc1ccc(/C(C)=N/NC(N)=S)cc1 [TSC 3]" readoutvalue=competitive

###

Molecular target: mushroom tyrosinase
Experiment: Kinetic studies of tyrosinase inhibition (Lineweaver-Burk and secondary plots)
Details: n = 3; secondary plots; read-out: Ki ± Standard Error (inhibition constant for enzyme-inhibitor complex)
pKi: −log10 of the molar value.
propertyName: pKi

molecule="COc1ccc(/C(C)=N/NC(N)=S)cc1 [TSC 3]" systemname="mushroom tyrosinase" propertyname=pKi readoutvalue=6.22
molecule="C/C(=N\\NC(N)=S)c1ccc(O)cc1 [TSC 9]" systemname="mushroom tyrosinase" propertyname=pKi readoutvalue=6.22
molecule="C/C(=N\\NC(N)=S)c1cccc(N)c1 [TSC 5]" systemname="mushroom tyrosinase" propertyname=pKi readoutvalue=6.22

Origin of values: paper PMC7831505
